test: qHTS Assay for Lipid Storage Modulators (AID 1519); conditions: Drosophila S3 cells, BODIPY lipid droplet/cell ratio, laser cytometry; at 57.5 µM (top of the series); cells loaded with oleic acid; further: on the % scale 0 is the no-effect control and ±100 the full control effect
Records with an inconclusive call do not appear. Activity calls are given as the source filed them. The call rests on the fitted dose curve.
Property Label: activity change, negative = inhibition

Compound | Result
COc1ccc(Oc2ncc3nc(-c4cc(F)cc(F)c4)c(=O)n(C)c3n2)cc1 | -5.54% (inactive)
COc1ccc(C(=O)N2CCC[C@@]3(CCN(c4ccccn4)C3)C2)cc1 | 5.2% (inactive)
O=C(Nc1ccccc1)N1CC[C@@]2(CCCN(C(=O)c3csnn3)C2)C1 | 6.56% (inactive)
COc1cccc(-c2nc(Nc3ccncc3)c3ccccc3n2)c1 | -7.83% (inactive)
CC(=O)Oc1ccc2c(c1)CCC1C2CC[C@]2(C)C(OC(C)=O)CCC12 (stereo partly specified) | -2.53% (inactive)
Cc1cnc(CNc2ccnc(-c3ccc(C(=O)N(C)C)cc3)n2)cn1 | 9.3% (inactive)
O=C(c1cnccn1)N1CCC2(CC1)CN(C(c1ccccc1)c1ccccc1)C2 | 1.71% (inactive)
CC(C)(S)[C@H](N)C(=O)O | 4.84% (inactive)
Cc1ccccc1-c1cncnc1NCCN1CCOCC1 | 4.31% (inactive)
Cc1noc(C)c1-c1ccc2ncnc(NCc3ccccc3)c2c1 | -0.127% (inactive)
CC(=O)NCCNc1ncnc2ccc(-c3ccccc3C)cc12 | 3.95% (inactive)
CC(C)CN1CCC2(CC1)CCN(S(=O)(=O)c1ccccc1)CC2 | 2.93% (inactive)
COc1cccc(-c2cncnc2NCc2ccc(OC)cc2OC)c1 | 7.71% (inactive)
COc1ccccc1CNc1cc(-c2cccc(C#N)c2)ncn1 | 3.16% (inactive)
COc1ccc(NC(=O)N2CC3(CCN(C(=O)c4cc(C(F)(F)F)cc(C(F)(F)F)c4)CC3)C2)cc1 | 2.01% (inactive)
CC(C)CN1CC[C@@]2(CCCN(C(=O)c3cccc(F)c3)C2)C1 | 1.5% (inactive)
COc1ccc(-n2c(=O)c(-c3cccs3)nc3cnc(N4CCNCC4)nc32)cc1 | 2.69% (inactive)
COC(=O)N1CCC2(CCCN(Cc3nccs3)C2)CC1 | 5.26% (inactive)
CN1CCN(c2ccnc(-c3ccc(N(C)C)cc3)n2)CC1 | 10.5% (inactive)
N[C@H](Cn1ccc(=O)c(O)c1)C(=O)O | -2.6% (inactive)
O=C(Oc1ccccc1)N1CCC2(CCCN(c3ccncc3)C2)CC1 | 4.64% (inactive)
COCCn1c(=O)c(-c2cn(C)c3ccccc23)nc2cnc(Oc3ccc(OC)cc3)nc21 | -11.5% (inactive)
O=C(c1cnccn1)N1CCC2(CC1)CN(c1ccccn1)C2 | 2.3% (inactive)
O=C(Oc1ccccc1)N1CCC2(CCCN(c3ccccn3)C2)CC1 | 1.87% (inactive)
COCCn1c(=O)c(-c2ccccc2)nc2cnc(Nc3cccc(OC)c3)nc21 | 1.38% (inactive)
Cn1cccc1C(=O)N1CCC2(CCCN(Cc3ccncc3)C2)CC1 | 7.27% (inactive)
O=c1c(-c2cc(F)cc(F)c2)nc2cncnc2n1Cc1ccc(F)cc1 | -8.57% (inactive)
O=C(c1cnccn1)N1CCC[C@@]2(CCN(Cc3ccccc3)C2)C1 | 1.97% (inactive)
O=c1cnc2cnc(N3CCNCC3)nc2n1C1CC1 | 0.852% (inactive)
Cn1cc(C(F)(F)F)nc1-c1ccc(OC[C@@H](O)CNCCOc2ccc(O)c(C(N)=O)c2)cc1 | 1.54% (inactive)
COc1ccccc1-c1ccc2ncnc(N(C)C)c2c1 | 4.68% (inactive)
COC(=O)N1CCC2(CCCN(C(=O)Nc3cccc(C#N)c3)C2)CC1 | 4.6% (inactive)
N#Cc1ccc(CN2CC3(CCN(C(=O)c4cccc(F)c4)CC3)C2)cc1 | -2.25% (inactive)
O=C(c1cc(C(F)(F)F)cc(C(F)(F)F)c1)N1CCC[C@@]2(CCN(c3ncccn3)C2)C1 | 4.69% (inactive)
O=C1C=CC2=C3c4cc(O)c(O)cc4CC3(O)COC2=C1O (stereo unspecified) | 6.15% (inactive)
COc1ccc2[nH]cc(CCNc3ncnc4ccc(-c5ccc(C(=O)N(C)C)cc5)cc34)c2c1 | 0.717% (inactive)
